IC50 for assorted compounds
# target_under_test: FL-SMARCA4 (Homo sapiens)
# Sequence (P51532 whole entry): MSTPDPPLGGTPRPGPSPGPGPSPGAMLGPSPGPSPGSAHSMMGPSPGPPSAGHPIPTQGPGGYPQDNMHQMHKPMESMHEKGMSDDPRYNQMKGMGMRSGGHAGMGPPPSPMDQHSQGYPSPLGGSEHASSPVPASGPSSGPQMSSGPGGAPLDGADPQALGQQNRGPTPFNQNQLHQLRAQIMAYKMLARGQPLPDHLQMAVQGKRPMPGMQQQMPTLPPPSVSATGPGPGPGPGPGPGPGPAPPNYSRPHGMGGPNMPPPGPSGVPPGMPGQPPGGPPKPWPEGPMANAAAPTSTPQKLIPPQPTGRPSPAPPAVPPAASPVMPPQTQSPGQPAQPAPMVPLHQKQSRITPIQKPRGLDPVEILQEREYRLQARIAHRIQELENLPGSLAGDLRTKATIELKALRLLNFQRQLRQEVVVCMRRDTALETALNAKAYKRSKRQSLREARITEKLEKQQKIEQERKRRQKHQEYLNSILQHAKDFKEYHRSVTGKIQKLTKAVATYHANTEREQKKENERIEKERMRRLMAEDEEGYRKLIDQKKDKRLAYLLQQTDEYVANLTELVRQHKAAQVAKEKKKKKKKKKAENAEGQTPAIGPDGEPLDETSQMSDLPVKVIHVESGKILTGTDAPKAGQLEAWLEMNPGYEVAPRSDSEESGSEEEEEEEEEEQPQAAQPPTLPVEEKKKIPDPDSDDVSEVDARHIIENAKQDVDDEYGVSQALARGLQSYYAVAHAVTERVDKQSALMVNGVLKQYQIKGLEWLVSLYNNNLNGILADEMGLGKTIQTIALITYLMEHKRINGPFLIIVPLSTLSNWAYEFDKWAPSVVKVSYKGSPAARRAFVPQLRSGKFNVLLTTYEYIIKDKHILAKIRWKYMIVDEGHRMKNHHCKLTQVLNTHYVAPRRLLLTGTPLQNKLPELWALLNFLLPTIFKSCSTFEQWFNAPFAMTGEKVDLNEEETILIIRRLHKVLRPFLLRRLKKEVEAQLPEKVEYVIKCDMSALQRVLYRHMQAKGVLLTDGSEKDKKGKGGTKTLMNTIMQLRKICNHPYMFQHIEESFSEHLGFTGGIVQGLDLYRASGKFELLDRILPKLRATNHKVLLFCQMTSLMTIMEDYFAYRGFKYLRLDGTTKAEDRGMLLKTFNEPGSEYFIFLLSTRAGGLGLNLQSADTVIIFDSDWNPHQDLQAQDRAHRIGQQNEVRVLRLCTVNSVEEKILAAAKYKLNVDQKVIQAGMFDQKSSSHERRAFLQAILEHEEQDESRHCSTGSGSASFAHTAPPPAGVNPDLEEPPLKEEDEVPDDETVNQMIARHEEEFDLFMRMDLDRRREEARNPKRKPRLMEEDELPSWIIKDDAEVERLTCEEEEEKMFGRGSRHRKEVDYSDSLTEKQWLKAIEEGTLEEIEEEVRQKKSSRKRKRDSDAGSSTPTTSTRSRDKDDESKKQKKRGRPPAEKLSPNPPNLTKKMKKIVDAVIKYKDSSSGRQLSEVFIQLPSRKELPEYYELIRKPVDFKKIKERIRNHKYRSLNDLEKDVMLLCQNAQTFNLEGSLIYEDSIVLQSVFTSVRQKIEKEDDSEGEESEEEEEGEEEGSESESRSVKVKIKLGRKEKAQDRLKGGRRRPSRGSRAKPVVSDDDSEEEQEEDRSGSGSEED
# experiment_notes: SMARCA4 ATPase activity assay (ADP-Glo, chicken mononucleosome substrate)
# condition_info: FL-SMARCA4 IC50, Table 3a.2; SMARCA4 5 nM, ATP 250 uM, mononucleosome 10 nM

See these solved cases before continuing.
compound: CCn1cc(NC(=O)c2ccc(Cl)c(Cl)n2)ccc1=O [Compound 33a]
target_under_test: FL-SMARCA4 (Homo sapiens)
IC50: > 50 µM
//
compound: CCn1cc(NC(=O)c2cncc(Cl)c2)ccc1=O [Compound 17a]
target_under_test: FL-SMARCA4 (Homo sapiens)
IC50: > 50 µM
//
compound: CCn1cc(NC(=O)c2c[nH]c3c(Cl)cccc23)ccc1=O [Compound 24a]
target_under_test: FL-SMARCA4 (Homo sapiens)
IC50: > 50 µM
//
compound: O=C(Nc1cc(F)c(=O)n(CCF)c1)c1ccc2c(c1)CNC2=O [Compound 68a]
target_under_test: FL-SMARCA4 (Homo sapiens)
IC50: > 50 µM

Exam item: // map CCn1cc(NC(=O)c2cccc(C)n2)ccc1=O [Compound 28a] to recorded IC50 (system: FL-SMARCA4 (Homo sapiens))
Marked response: > 50 µM
